- Test system: A2780
- protocolSummary: Anti-proliferative effect in A2780 cells, CellTiter-Glo (Assay 7)
- Format: cell-based
- conditionsUsed: A2780, 72 hours incubation, CellTiter-Glo; several values per example; read-out: Antiproli A2780
pIC50: −log10 of the molar value.
Label 1.0 when pIC50 >= 5; otherwise 0.0.

| compound | studySystem | classAssignment |
| --- | --- | --- |
| CCNCC.Cc1c2c(nn1C)COCc1ncccc1Cn1c(C(=O)O)c(CCCOc3cccc4ccccc34)c3ccc(Cl)c-2c31 (single isomer, unassigned; enantiomer 1) [Example 43] | A2780 | 0.0 |
| CCc1c2c(nn1C)COCc1ccccc1Cn1c(C(=O)O)c(CCCOc3ccc(F)c4ccccc34)c3ccc(F)c-2c31 (racemic) [Example 76] | A2780 | 0.0 |
| Cc1c2c(nn1C)COCc1nc3ccccc3nc1Cn1c(C(=O)O)c(CCCOc3cccc4ccccc34)c3cccc-2c31 (racemic) [Example 10] | A2780 | 0.0 |
| CCc1nn(CCN2CCOCC2)c2c1-c1c(Cl)ccc3c(CCCOc4cccc5cc(F)ccc45)c(C(=O)O)n(c13)Cc1ccccc1COC2 (single isomer, unassigned; enantiomer 1) [Example 52] | A2780 | 1.0 |

Determine whether measured pIC50 meets or exceeds 5 for Cc1c2c(nn1C)COCc1cccnc1Cn1c(C(=O)O)c(CCCOc3cccc4ccccc34)c3cccc-2c31 [Example 05]
1.0

* * *

- Tested on: MV-4-11
- protocolSummary: Anti-proliferative effect in MV-4-11 cells, CellTiter-Glo (Assay 7)
- Type: cell-based
- conditionsUsed: Homo sapiens, MV4-11, 72 h, read-out: Antiproli MV-4-11 [M], MV-4-11, 72 hours incubation, CellTiter-Glo; several values per example
IC50: recorded values
Numeric answer plus unit only.

| molecule | studySystem | IC50 |
| --- | --- | --- |
| Cc1c2c(nn1C)COCc1ncccc1Cn1c(C(=O)O)c(CCCOc3cccc4ccccc34)c3ccc(Cl)c-2c31 (single isomer, unassigned; enantiomer 2) [Example 44] | MV-4-11 | 1.54e-05 M |

Field IC50 (MV-4-11), entry Cc1c2c(nn1C)CN(S(=O)(=O)CCN1CCOCC1)Cc1ccccc1Cn1c(C(=O)O)c(CCCOc3cccc4ccccc34)c3cccc-2c31 (single isomer, unassigned; enantiomer 1) [Example 31] : 5.49e-06 M

Item CCc1c2c(nn1C)COCc1ccccc1Cn1c(C(=O)O)c(CCCOc3cccc4ccccc34)c3ccc(F)c-2c31 (single isomer, unassigned; enantiomer 1) [Example 71] ; assay system MV-4-11; IC50 reported as 4.81e-06 M

Observed IC50 on MV-4-11, entry CCc1nn(C)c2c1-c1c(Cl)ccc3c(CCCOc4cccc5cc(F)ccc45)c(C(=O)O)n(c13)Cc1ccccc1COC2 (single isomer, unassigned; enantiomer 2) [Example 59] , equals 4.5e-06 M

* * *

- studySystem: MCL-1 (Homo sapiens, UniProt Q07820, K194A/K197A/R201A)
- Sequence (Q07820 173-321 K194A/K197A/R201A, looked up): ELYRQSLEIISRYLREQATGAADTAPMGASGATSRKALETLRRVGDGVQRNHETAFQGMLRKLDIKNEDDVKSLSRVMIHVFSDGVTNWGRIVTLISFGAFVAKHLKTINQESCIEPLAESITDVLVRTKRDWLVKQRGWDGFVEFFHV
- protocolSummary: Protein-protein interaction assay MCL-1/Noxa BH3 peptide, TR-FRET (MCL-1 assay, Assay 1)
- Type: binding
- conditionsUsed: MCL-1 Assay [M] (median), MBP-MCL-1 / Noxa BH3 peptide
Reported IC50 values are given for each entry in this list.

| compound | studySystem | IC50 |
| --- | --- | --- |
| Cc1nn(C)c2c1-c1c(F)ccc3c(CCCOc4cccc5cc(F)ccc45)c(C(=O)O)n(c13)Cc1ccccc1COC2 (racemic) | MCL-1 (Homo sapiens, UniProt Q07820, K194A/K197A/R201A) | 4.6e-09 M |
| CCc1nn(C)c2c1-c1c(Cl)ccc3c(CCCOc4cccc5cc(F)ccc45)c(C(=O)O)n(c13)Cc1ccccc1COC2 (single isomer, unassigned; enantiomer 2) [Example 59] | MCL-1 (Homo sapiens, UniProt Q07820, K194A/K197A/R201A) | 1e-08 M |

Consider the additional compound presented here.
IC50 for Cc1nn(C)c2c1-c1c(F)ccc3c(CCCOc4cccc5c4CCC5)c(C(=O)O)n(c13)Cc1ccccc1COC2 (racemic) is 6.2e-09 M

* * *

Quick reference: IC50 of the listed items.
- System: SUDHL5
- protocolSummary: Induction of cytotoxicity in SUDHL5 cells, CellTiter-Glo (Assay 6)
- Assay type: cell-based
- conditionsUsed: SUDHL5, 5 hours incubation, median, read-out: Cytotox SUDHL5 [M] (median)
# number only, unit M dropped from output

Please review the following examples before continuing.
| compound | val |
| --- | --- |
| Cc1c2c(nn1C)CN(C)Cc1ccccc1Cn1c(C(=O)O)c(CCCOc3cccc4ccccc34)c3cccc-2c31 (single isomer, unassigned; enantiomer 1) [Example 15] | 3.3e-06 |
| CCc1nn(CCN2CCOCC2)c2c1-c1c(Cl)ccc3c(CCCOc4cccc5cc(F)ccc45)c(C(=O)O)n(c13)Cc1ccccc1COC2 (single isomer, unassigned; enantiomer 2) [Example 53] | 2.3e-06 |
| Cc1c2c(nn1C)CN(C(=O)CC1CCOCC1)Cc1ccccc1Cn1c(C(=O)O)c(CCCOc3cccc4ccccc34)c3cccc-2c31 (single isomer, unassigned; enantiomer 2) [Example 23] | 4.4e-06 |

// below: IC50 requested for another compound
Record Cc1c2c(nn1C)COCc1ccccc1Cn1c(C(=O)O)c(CCCOc3cccc4cc(F)ccc34)c3ccc(F)c-2c31 (single isomer, unassigned; enantiomer 2) [Example 66] , field IC50: 4.1e-06

* * *

- System: SUDHL5
- protocolSummary: Anti-proliferative effect in SUDHL5 cells, CellTiter-Glo (Assay 7)
- Assay type: cell-based
- conditionsUsed: SUDHL5, 72 hours incubation, CellTiter-Glo; median; read-out: Antiproli SUDHL5 [M] (median)
valueType: IC50
Give the number first and the unit second.

// solved cases for IC50 follow
| molecule | IC50 |
| --- | --- |
| CCNCC.Cc1c2c(nn1C)COCc1ncccc1Cn1c(C(=O)O)c(CCCOc3cccc4ccccc34)c3ccc(Cl)c-2c31 (single isomer, unassigned; enantiomer 1) | 1.2e-06 M |
| CCc1nn(CCN2CCOCC2)c2c1-c1c(Cl)ccc3c(CCCOc4cccc5cc(F)ccc45)c(C(=O)O)n(c13)Cc1ccccc1COC2 (single isomer, unassigned; enantiomer 2) [Example 53] | 2.8e-06 M |

Could you now look at the following molecule, please?
Looking up Cc1c2c(nn1C)COCc1cccnc1Cn1c(C(=O)O)c(CCCOc3cccc4ccccc34)c3cccc-2c31 (single isomer, unassigned; enantiomer 2) [Example 6] , I see its IC50 listed as 1.2e-05 M

* * *

- System: SUDHL10
- protocolSummary: Induction of cytotoxicity in SUDHL10 cells, CellTiter-Glo (Assay 6)
- Type: cell-based
- conditionsUsed: SUDHL10, 5 hours incubation, median, read-out: Cytotox SUDHL10 [M] (median)
- Experimental: Induction of Cytotoxicity Upon Treatment of Cells with Selected Compounds In principle, compounds that induce apoptosis will concomitantly induce cell cytotoxicity. Therefore, cytotoxicity assays were run in parallel in SUDHL5 and SUDHL10 cells. As a control, medium without cells was also added to the plate. Cells were incubated in a humidified incubator at 37° C. overnight. […] Finally, luminescence was read at 0.1 ms, with a gain of 3000 using the PHERAstar FS microplate reader (BMG Labtech).
Collected IC50 values appear next to each entry.

Example cases with answers are listed next.
| molecule | val |
| --- | --- |
| CCc1c2c(nn1C)COCc1ccccc1Cn1c(C(=O)O)c(CCCOc3cccc4cc(F)ccc34)c3ccc(F)c-2c31 (single isomer, unassigned; enantiomer 1) [Example 74] | 1.4e-06 M |
| CCc1nn(CCN2CCOCC2)c2c1-c1c(Cl)ccc3c(CCCOc4cccc5cc(F)ccc45)c(C(=O)O)n(c13)Cc1ccccc1COC2 (single isomer, unassigned; enantiomer 1) [Example 52] | 8.8e-07 M |
| Cc1c2c(nn1C)COCc1ccccc1Cn1c(C(=O)O)c(CCCOc3cccc4ccccc34)c3ccc(F)c-2c31 (single isomer, unassigned; enantiomer 2) [Example 69] | > 3.3e-05 M |
| Cc1c2c(nn1C)COCc1ccccc1Cn1c(C(=O)O)c(CCCOc3cccc4ccccc34)c3ccc(Cl)c-2c31 (single isomer, unassigned; enantiomer 1) [Example 37] | 2.7e-06 M |
| Cc1c2c(nn1C)COCc1ccccc1Cn1c(C(=O)O)c(CCCOc3cccc4ccccc34)c3ccc(Cl)c-2c31 (single isomer, unassigned; enantiomer 2) [Example 38] | 6.8e-06 M |

According to the records, this molecule Cc1c2c(nn1C)CN(C(=O)CC1CCOCC1)Cc1ccccc1Cn1c(C(=O)O)c(CCCOc3cccc4ccccc34)c3cccc-2c31 (single isomer, unassigned; enantiomer 1) [Example 22] displays IC50 of > 3.3e-05 M

For record Cc1c2c(nn1C)COCc1nccnc1Cn1c(C(=O)O)c(CCCOc3cccc4ccccc34)c3ccc(Cl)c-2c31 (single isomer, unassigned; enantiomer 2) [Example 47] the listed IC50 is 1.9e-05 M

Form field IC50, entry Cc1c2c(nn1C)CN(C(=O)CC1CCOCC1)Cc1ccccc1Cn1c(C(=O)O)c(CCCOc3cccc4ccccc34)c3cccc-2c31 (single isomer, unassigned; enantiomer 2) [Example 23] : 1.1e-05 M

Entry Cc1c2c(nn1C)COCc1ccccc1Cn1c(C(=O)O)c(CCCOc3cccc4ccccc34)c3ccc(F)c-2c31 (single isomer, unassigned; enantiomer 1) [Example 68] ; IC50 = 4.6e-06 M

Record CCc1c2c(nn1C)COCc1ccccc1Cn1c(C(=O)O)c(CCCOc3cccc4ccccc34)c3ccc(F)c-2c31 (single isomer, unassigned; enantiomer 1) [Example 71] , field IC50: 3.6e-06 M
